Hello, the source for this data is ChEMBL document CHEMBL3751771, in case you need it.

# Tested on: Escherichia coli
# Protocol notes: Antibacterial activity against Escherichia coli ATCC 25922
# Assay type: functional
Would you kindly list MIC for each of these compounds?
Express the result in µg/mL but write the number alone.

Ask: Tell me reported MIC for C[C@@](CCN1Cc2cc(C#CC#C[C@@H]3C[C@@]3(F)CO)cn2C1=O)(C(=O)NO)S(C)(=O)=O , tested with Escherichia coli.
Result: 0.25

Ask: Tell me reported MIC for COc1ccc(-c2cc3n(c2)C(=O)N(CC[C@](C)(C(=O)NO)S(C)(=O)=O)C3)c(F)c1 , tested with Escherichia coli.
Result: 0.125

Ask: Tell me reported MIC for C[C@@](CCN1Cc2cc(C#Cc3ccc(OCCO)cc3)cn2C1=O)(C(=O)NO)S(C)(=O)=O , tested with Escherichia coli.
Result: 0.125

Ask: Tell me reported MIC for C[C@@](CCN1Cc2cc(C#Cc3ccc(C4(CN)CC4)cc3)cn2C1=O)(C(=O)NO)S(C)(=O)=O.O=CO , tested with Escherichia coli.
Result: 8
